- targetOrSystem: SARS-CoV-2 Main Protease (SARS-CoV-2)
measurementKind: log10(IC50) (log10 of the value in nM)

[
  {
    "molecule": "O=C(Cc1cc(Cl)cc(Nc2cc(Br)ccc2F)c1)Nc1cncc2ccccc12",
    "log10(IC50)": 3.28
  },
  {
    "molecule": "Cc1ccncc1NC(=O)Cc1cc(Cl)cc(NS(C)(=O)=O)c1",
    "log10(IC50)": 4.34
  },
  {
    "molecule": "Cc1cc(F)cc2cncc(NC(=O)Cc3cccc(Cl)c3)c12",
    "log10(IC50)": 2.93
  },
  {
    "molecule": "O=C(Cc1cc(Cl)cc(Nc2cc(F)c(F)cc2Br)c1)Nc1cncc2ccccc12",
    "log10(IC50)": 3.33
  },
  {
    "molecule": "O=C(Cc1cc(Cl)cc(Nc2ccc3c(c2)OCCO3)c1)Nc1cncc2ccccc12",
    "log10(IC50)": 3.33
  },
  {
    "molecule": "O=C(Nc1ccccn1)[C@H]1CN(C(=O)CCl)CCN1S(=O)(=O)c1ccsc1 (stereo in doubt)",
    "log10(IC50)": 3.68
  },
  {
    "molecule": "O=C(CCl)N1CCN(Cc2cc(Cl)cc(Cl)c2)CC1",
    "log10(IC50)": 3.28
  },
  {
    "molecule": "CC(C)(C)c1ccc(O)c(Nc2cc(Cl)cc(CC(=O)Nc3cncc4ccccc34)c2)c1",
    "log10(IC50)": 3.81
  },
  {
    "molecule": "O=C1CC(C(=O)Nc2cncc3ccccc23)c2cc(Br)ccc2N1 (stereo not given)",
    "log10(IC50)": 3.05
  },
  {
    "molecule": "O=C(Nc1cncc2ccccc12)C1CN(C2CCNC2=O)C(=O)c2ccc(Cl)cc21 (stereo not given)",
    "log10(IC50)": 2.86
  },
  {
    "molecule": "COCCN1CC(C(=O)Nc2cncc3ccccc23)c2cc(Cl)ccc2C1=O (stereo not given)",
    "log10(IC50)": 2.43
  }
]

* * *

What follows is a record of IC50 for SARS-CoV-2 Main Protease (SARS-CoV-2) (UniProt P0DTD1).
measurementKind: IC50 (µM)

[
  {
    "compound": "O=C(Cc1cc(Cl)cc(Nc2ccc3c(c2)OC(F)(F)O3)c1)Nc1cncc2ccccc12",
    "qualifier": "=",
    "valueMeasured": 2.07
  },
  {
    "compound": "Cc1ccncc1NC(=O)C(C)c1cc(Cl)cc(OC2CC(=O)N2)c1 (stereo not given)",
    "qualifier": "=",
    "valueMeasured": 77.1
  },
  {
    "compound": "O=C(NCCc1cccc(F)c1)C(c1cccnc1)N(Cc1cc(C(F)(F)F)cs1)C(=O)c1ccco1 (stereo not given)",
    "qualifier": ">",
    "valueMeasured": 99.5
  },
  {
    "compound": "O=c1oc(Nc2ccccc2)nc2ccccc12",
    "qualifier": "=",
    "valueMeasured": 1.57
  },
  {
    "compound": "O=C(Cc1cc(Cl)cc(Nc2cc(Cl)ccc2Br)c1)Nc1cncc2ccccc12",
    "qualifier": "=",
    "valueMeasured": 2.1
  },
  {
    "compound": "Cc1ccccc1C(C)NC(C)C(=O)Nc1ccc2[nH]c(=O)[nH]c2c1 (stereo not given)",
    "qualifier": ">",
    "valueMeasured": 99.5
  },
  {
    "compound": "Cc1ccc2nnc(CNc3ccc4nnc(C(F)(F)F)n4n3)n2c1",
    "qualifier": ">",
    "valueMeasured": 99.5
  },
  {
    "compound": "CCc1n[nH]c(=O)c(-c2nc(-c3c[nH]c4ncccc34)cs2)c1CC",
    "qualifier": ">",
    "valueMeasured": 99.5
  },
  {
    "compound": "O=C(NCCc1cccc(F)c1)C(c1cccnc1)N(C(=O)c1cocn1)C1Cc2ccccc21 (stereo not given)",
    "qualifier": ">",
    "valueMeasured": 99.5
  },
  {
    "compound": "O=C(COc1cccc(Cl)c1)Nc1cncc2ccccc12",
    "qualifier": "=",
    "valueMeasured": 11.2
  }
]

* * *

- studyConditions: rat; plasma
measurementKind: fraction unbound

[
  {
    "compound": "O=C(Nc1cncc2ccccc12)C1CCS(=O)(=O)c2ccc(Cl)cc21 (configuration not stated)",
    "valueMeasured": 0.2
  },
  {
    "compound": "O=C(Nc1cncc2ccccc12)C1CN(S(=O)(=O)CC2CNC2)Cc2ccc(Cl)cc21 (configuration not stated)",
    "valueMeasured": 0.335
  }
]

* * *

- targetOrSystem: UniProtKB P0DTD1
pIC50: −log10 of the molar value.
measurementKind: pIC50

[
  {
    "compound": "CC(C)C[C@@H](NC(=O)[C@@H](Cc1ccccc1)NC(=O)[C@H](N)Cc1ccccc1)C(=O)N[C@H](CCCCN)C(=O)N1CCC(N)(C(=O)O)CC1 (stereo in doubt)",
    "measurementKind": "pIC50",
    "qualifier": "<",
    "valueMeasured": 4.00
  },
  {
    "compound": "COC(=O)c1c(C)n(S(C)(=O)=O)c2ccc(N(C(=O)c3ccco3)S(C)(=O)=O)cc12",
    "measurementKind": "pIC50",
    "qualifier": "=",
    "valueMeasured": 6.03
  },
  {
    "compound": "O=C(Cc1cc(Cl)cc(NCCc2ccc(Cl)c(Cl)c2)c1)Nc1cncc2ccccc12",
    "measurementKind": "pIC50",
    "qualifier": "=",
    "valueMeasured": 5.27
  },
  {
    "compound": "C[C@H](Nc1cc(Cl)cc(CC(=O)Nc2cncc3ccccc23)c1)c1ccc(Br)cc1 (stereo in doubt)",
    "measurementKind": "pIC50",
    "qualifier": "=",
    "valueMeasured": 5.42
  },
  {
    "compound": "C=CC(=O)N(Cc1ccccc1Cl)C(C(=O)NC(C)(C)C)c1cccnc1 (centres undefined)",
    "measurementKind": "pIC50",
    "qualifier": "<",
    "valueMeasured": 4.00
  },
  {
    "compound": "COc1ccc(N(Cc2ccccc2)C(=O)Cc2c[nH]c3ccccc23)cc1",
    "measurementKind": "pIC50",
    "qualifier": "<",
    "valueMeasured": 4.00
  },
  {
    "compound": "O=C(Nc1cncc2ccccc12)C(NCC1CC1)c1ccc(Cl)c(Cl)c1 (centres undefined)",
    "measurementKind": "pIC50",
    "qualifier": "=",
    "valueMeasured": 5.76
  },
  {
    "compound": "O=C(Cc1cc(Cl)cc(Nc2cccc(C(F)(F)F)n2)c1)Nc1cncc2ccccc12",
    "measurementKind": "pIC50",
    "qualifier": "=",
    "valueMeasured": 5.67
  },
  {
    "compound": "Cc1cccc2cncc(N3CCC4(CCOc5ccc(Cl)cc54)C3)c12 (centres undefined)",
    "measurementKind": "pIC50",
    "qualifier": "<",
    "valueMeasured": 4.00
  },
  {
    "compound": "CC(C)C[C@@H]1CN(C(=O)CCl)CCN1Cc1cccc(Cl)c1 (stereo in doubt)",
    "measurementKind": "pIC50",
    "qualifier": "=",
    "valueMeasured": 6.11
  },
  {
    "compound": "COc1cc2c(cc1Nc1cc(Cl)cc(CC(=O)Nc3cncc4ccccc34)c1)oc1ccccc12",
    "measurementKind": "pIC50",
    "qualifier": "=",
    "valueMeasured": 5.73
  },
  {
    "compound": "O=C(Cc1cc(Cl)cc(N2CCc3ccccc3[C@H]2c2ccccc2)c1)Nc1cncc2ccccc12 (stereo in doubt)",
    "measurementKind": "pIC50",
    "qualifier": "=",
    "valueMeasured": 5.56
  },
  {
    "compound": "CC(=O)N1CCN(CC(=O)Nc2cnccc2-c2ccccc2)CC1",
    "measurementKind": "pIC50",
    "qualifier": "<",
    "valueMeasured": 4.00
  },
  {
    "compound": "O=C(Cc1cc(Cl)cc(Nc2cccc(Cl)c2Br)c1)Nc1cncc2ccccc12",
    "measurementKind": "pIC50",
    "qualifier": "=",
    "valueMeasured": 5.71
  },
  {
    "compound": "CC(C)(C)c1ccc(N(C(=O)c2cocn2)C(C(=O)NCC2CCCO2)c2cccnc2)cc1 (centres undefined)",
    "measurementKind": "pIC50",
    "qualifier": "=",
    "valueMeasured": 5.29
  },
  {
    "compound": "O=C(Cc1cc(Cl)cc(N2CCN(CCc3ccccc3)CC2)c1)Nc1cncc2ccccc12",
    "measurementKind": "pIC50",
    "qualifier": "=",
    "valueMeasured": 5.30
  },
  {
    "compound": "O=C(Cc1cc(Cl)cc(Nc2ccc(I)c(F)c2)c1)Nc1cncc2ccccc12",
    "measurementKind": "pIC50",
    "qualifier": "=",
    "valueMeasured": 5.69
  },
  {
    "compound": "Cc1ccc(C(Cc2cnn(C)c2)C(=O)Nc2n[nH]c3ccccc23)cc1 (centres undefined)",
    "measurementKind": "pIC50",
    "qualifier": "<",
    "valueMeasured": 4.00
  },
  {
    "compound": "O=C(Cc1cc(Cl)cc(Nc2nc3cc(Cl)ccc3s2)c1)Nc1cncc2ccccc12",
    "measurementKind": "pIC50",
    "qualifier": "=",
    "valueMeasured": 5.69
  }
]
